tested on: Ba/F3-CD74-ROS1-G2032R; test: Inhibition of cell proliferation (CellTiter-Glo), Ba/F3-CD74-ROS1-G2032R; assay type: cell-based; details: 72 hours
Would you mind telling me the reported IC50 of each entry?
Entry rule: numbers only, all in nM.

Looking up C[C@@H](Nc1ccn2ncc(C3=NC(=O)C(C)(C)N3)c2n1)c1cc(F)ccc1OC(F)F [Example 6] , I found its IC50 recorded as 24.1

// COc1ccc(F)cc1[C@@H](C)Nc1ccn2ncc(C3=NC(=O)C(C)(C)N3)c2n1 [Example 7] : IC50 value = 54.6

Reported IC50 for C[C@@H](Nc1ccn2ncc(C3=NOCCN3)c2n1)c1cc(F)ccc1OC(F)(F)F [Example 26] was 35.2

The reported IC50 of the compound C[C@@H](Nc1ccn2ncc(C3=NOCCN3)c2n1)c1cc(F)ccc1OC(F)F [Example 9] was 31.6
